# Study System: T1, LILRB2-ECD-HIS (SinoBiological Cat #: 14132-H02H) (human, UniProt Q8N423 22-460)
# T1 construct: Bought protein; also called monomeric antigen LILRB2-ECD-HIS; not shown: His tag
# T1 sequence (Q8N423 other isoform, or with tags, fused parts or gaps H02H H02H): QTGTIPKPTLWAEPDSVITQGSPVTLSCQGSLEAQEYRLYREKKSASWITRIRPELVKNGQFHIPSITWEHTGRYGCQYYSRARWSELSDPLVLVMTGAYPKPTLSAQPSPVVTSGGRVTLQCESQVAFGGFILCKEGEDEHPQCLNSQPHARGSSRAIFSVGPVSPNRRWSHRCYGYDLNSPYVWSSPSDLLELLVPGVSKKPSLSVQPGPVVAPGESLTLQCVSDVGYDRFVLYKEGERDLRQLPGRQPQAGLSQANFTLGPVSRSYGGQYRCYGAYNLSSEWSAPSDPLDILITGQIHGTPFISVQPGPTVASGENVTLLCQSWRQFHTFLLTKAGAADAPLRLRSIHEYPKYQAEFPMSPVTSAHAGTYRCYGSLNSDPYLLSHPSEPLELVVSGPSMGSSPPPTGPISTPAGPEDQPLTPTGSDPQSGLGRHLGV
# Procedure Text: SPR (Carterra LSA), antibody captured, antigen injected;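 also: kd obtained from kinetic analysis of antibody binding to the antigen, with association and dissociation phases fitted in the instrument software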
Recorded Metric: Kd (nM)
Give just the numeric value; nM need not be written.

#41 (antibody, human IgG1, V domains shown, also called D2M002-041) VH: DVQLQQSGAELMKPGASVKISCKATGYTFSSSWIEWVKQRPGHGLEWIGEILPGSGNTSYNEKFKGKATFTADTSSSAAYMQLSSLTSEDSAVYYCARSGLYYDYGGFAYWGQGTLVTVSA VL: DIVLTQSPASLAVSLGQRATISCRASESVDTYGNSFMHWYQQKPGQPPKLLIYRTSNLESGIPARFSGSGSRTDFTLTINPVEADDVATYYCQQSNEDPFTFGSGTKLEIK; 0.624
#23 (antibody, human IgG1, V domains shown, also called D2M002-023) VH: QVQMQQPGAELMKPGASVKISCKATGYTFSRYWIEWVKQRPGHGLEWIGEILPGDGSTNYNAKFKGQATFTADTSSNTAYMQFSSLTYEDSAVYYCARSGAGGYDSGAFAYWGQGTLVTVSS VL: DIVLTQSPASLAVSLGQRATISCRASESVDTYGNSFMHWYQQKPGQPPKLLIYRTSNLESGIPARFSGSGSRTDFTLTINPVEADDVATYYCQQSNEDPWTFGGGTKLEIK; 0.636
#31 (antibody, human IgG1, V domains shown, also called D2M002-031) VH: QVQMQPFGAELMKPGASVRISCKATGYTFSSSWIEWVKQRPGHGLEWIGEILPGSGTTNYNEKFKGKATFTADTSSNTAYMQLSSLTSEDSAVYYCARSGAGGYDSGAFTYWGQGTLVTVSA VL: DIVLTQSPASLAVSLGQRATISCRASESIDTYGNSFMHWYQQKPGQPPKLLIYRASNLESGIPARFSGSGSRTDFTLTINPVEADDVATYYCQQSNEDPWTFGGGTKLEIK; 1.26

# evaluate next
For this binder ( #35 (antibody, human IgG1, V domains shown, also called D2M002-035) VH: QVQLQQSGAELMKPGASVRISCKATGYTFSSSWIEWVKQRPGHGLEWIGEILPGSGSTNYNEKFKGKATFTADTSSNTAYMQLSSLTSEDSAVYYCARSGAGGYDSGAFTYWGQGTLVTVSA VL: DIVLTQSPASLAVSLGQRATISCRASESIDTYGNSFMHWYQQKPGQPPKLLIYRASNLESGIPARFSGSGSRTDFTLTINPVEADDVATYYCQQSNEDPWTFGGGTKLEIK ), measured Kd is 0.617
